# study system: Fibroblast growth factor receptor 1 (Homo sapiens, UniProt P11362)
# Sequence (P11362 whole entry): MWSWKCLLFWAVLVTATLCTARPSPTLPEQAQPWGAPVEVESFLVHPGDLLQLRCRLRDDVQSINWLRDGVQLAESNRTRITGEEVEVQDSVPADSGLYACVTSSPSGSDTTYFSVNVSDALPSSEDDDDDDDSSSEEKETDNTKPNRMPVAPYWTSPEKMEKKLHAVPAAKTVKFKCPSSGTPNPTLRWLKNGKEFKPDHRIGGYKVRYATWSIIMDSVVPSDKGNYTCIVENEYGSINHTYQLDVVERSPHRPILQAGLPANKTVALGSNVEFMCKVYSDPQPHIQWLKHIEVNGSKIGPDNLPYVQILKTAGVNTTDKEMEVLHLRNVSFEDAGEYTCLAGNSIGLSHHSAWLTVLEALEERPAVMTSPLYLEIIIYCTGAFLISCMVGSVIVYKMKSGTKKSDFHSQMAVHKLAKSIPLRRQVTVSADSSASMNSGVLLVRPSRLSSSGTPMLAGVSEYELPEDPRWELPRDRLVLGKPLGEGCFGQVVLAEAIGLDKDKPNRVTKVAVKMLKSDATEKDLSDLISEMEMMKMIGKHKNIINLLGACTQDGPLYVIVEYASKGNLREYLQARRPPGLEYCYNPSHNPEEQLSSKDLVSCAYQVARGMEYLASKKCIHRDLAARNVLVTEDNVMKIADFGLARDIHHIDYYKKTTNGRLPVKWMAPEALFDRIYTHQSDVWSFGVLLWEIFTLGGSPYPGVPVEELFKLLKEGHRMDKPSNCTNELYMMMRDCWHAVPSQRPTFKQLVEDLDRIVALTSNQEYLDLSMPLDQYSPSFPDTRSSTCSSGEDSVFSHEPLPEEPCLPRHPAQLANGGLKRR
measured property: pIC50
In simple prose, pIC50 is minus the logarithm base ten of a concentration in moles per litre.

Entry under test: "CC(C)c1ccc2c(c1)CC[C@H]1[C@](C)(C/N=C/c3c(O)ccc4ccccc34)CCC[C@]21C" . Its pIC50 was 5.92

---

# Tested on: A549
# experiment description: Cytotoxicity against human A549 cells
# Type: functional, cell-based
Consider the following compounds and their measured IC50 readings.

# count of solved cases: 4
INSERT INTO assay_data (chem_smiles, experimental_value) VALUES
  ('COc1ccc(/C=N/C[C@]2(C)CCC[C@]3(C)c4ccc(C(C)C)cc4CC[C@@H]23)cc1', '750 nM'),
  ('COC(=O)[C@H](Cc1ccc(O)cc1)NC(=O)[C@]1(C)CCC[C@]2(C)c3ccc(C(C)C)cc3CC[C@@H]12', '7100 nM'),
  ('COc1ccc(/C=N/C[C@]2(C)CCC[C@]3(C)c4ccc(C(C)C)cc4CC[C@@H]23)c(O)c1', '750 nM'),
  ('CC(C)c1ccc2c(c1)CC[C@H]1[C@](C)(C/N=C/c3cccc(F)c3)CCC[C@]21C', '750 nM');

Next:
"CC(C)c1ccc2c(c1)CC[C@H]1[C@](C)(C/N=C/c3ccc(C(F)(F)F)cc3)CCC[C@]21C" yielded IC50 of 750 nM
